assay: acute toxicity, single oral administration to mice; type: in vivo; conditions: mouse, in vivo
Structures can show the parent of a compound that is named as a salt.
recorded metric: LD50

INSERT INTO assay_data (molecule, result) VALUES
  ('CN(C)CCC1(c2cccc(O)c2)C=CCCC1 (racemic) [hydrochloride]', '250 to 500 mg/kg'),
  ('COc1cccc(C2(CCN(C)C)C=CCCC2)c1.Cl (single isomer, unassigned; (+))', '250 to 500 mg/kg'),
  ('COc1cccc(C2(CCN(C)C)C=CCCC2)c1 (racemic) [hydrochloride]', '150 to 300 mg/kg');

The values you see were collected from patent US4336268A.
